Target: DNA gyrase (Escherichia coli, UniProt P0AES4+P0AES6)
Construct: purchased Inspiralis, UK
Experiment: DNA gyrase supercoiling assay (E. coli)
Type: biochemical
Settings: single concentration (200, 100 or 50 μM), in duplicate, versus the positive control (vehicle)
Counter-ions that a name gives are not always drawn.
Quick rule for you: % inhibition DNA gyrase at 70% or higher means criterion met, lower means criterion not met.

| compound | assigned category |
| --- | --- |
| COC(=O)C1CN(c2nccc3ccccc23)CCN1CCCNc1cc(=O)oc2ccccc12 (stereo not shown) [Compound 81, hydrochloride] | criterion met |
| O=c1cc(NCCCN2CCN(c3nccc4ccc(F)cc34)CC2)c2c(o1)CCNC2 [Compound 122, hydrochloride] | criterion not met |
| O=C(O)CC(NCCNC1CCN(c2nccc3ccc(F)cc23)CC1)C1CCCCC1 (stereo not shown) [Compound 190] | criterion not met |
| O=C(CN1CCC(Nc2cc(=O)oc3ccccc23)CC1)Nc1nccc2ccccc12 [Compound 117] | criterion met |
